Measured values drawn from PubChem BioAssay (Tox21) for this set.

Biological target: Acetylcholinesterase (Homo sapiens) (UniProt P22303)
Sequence (P22303 whole entry, looked up): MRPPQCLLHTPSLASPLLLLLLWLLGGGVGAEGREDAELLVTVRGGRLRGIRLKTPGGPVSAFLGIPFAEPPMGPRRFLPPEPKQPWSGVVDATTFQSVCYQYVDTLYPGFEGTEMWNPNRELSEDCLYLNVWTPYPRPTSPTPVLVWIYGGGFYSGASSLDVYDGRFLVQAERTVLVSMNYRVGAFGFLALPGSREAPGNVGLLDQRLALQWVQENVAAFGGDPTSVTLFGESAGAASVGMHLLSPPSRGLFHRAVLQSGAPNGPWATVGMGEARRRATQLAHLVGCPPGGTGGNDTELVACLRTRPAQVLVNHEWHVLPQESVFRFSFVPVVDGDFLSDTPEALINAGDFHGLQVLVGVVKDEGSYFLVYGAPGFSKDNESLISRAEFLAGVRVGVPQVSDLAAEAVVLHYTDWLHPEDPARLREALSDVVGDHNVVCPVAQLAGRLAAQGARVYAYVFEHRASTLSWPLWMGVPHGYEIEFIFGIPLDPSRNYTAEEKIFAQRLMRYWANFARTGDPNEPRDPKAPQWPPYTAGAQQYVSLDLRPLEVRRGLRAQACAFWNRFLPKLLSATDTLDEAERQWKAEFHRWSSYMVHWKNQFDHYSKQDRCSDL
Experiment: Acetylcholinesterase (AChE) small molecule antagonists: fluorescence cell-based qHTS assay (AID 1347398); further: nearly all actives have a fitted effect of over 50% in size
Conditions: SH-SY5Y cells; AChE activity; series mostly up to 115 µM
Records with an inconclusive call do not appear. Active and inactive are the calls of the source. The call rests on the fitted dose curve.
Entry note: the call must match one of 1 (yes) = active, 0 (no) = inactive

Lookup: Tell me the recorded outcome of this test for `O=C1CC[C@@]2(O)[C@H]3Cc4ccc(O)c5c4[C@@]2(CCN3CC2CC2)[C@H]1O5` .
Found: 0 (no)

Lookup: Tell me the recorded outcome of this test for `CC(C)CCON=O` .
Found: 0 (no)

Lookup: Tell me the recorded outcome of this test for `CCCN(CCC)C(=O)Cc1c(-c2ccc(Cl)cc2)nc2ccc(Cl)cn12` .
Found: 0 (no)

Lookup: Tell me the recorded outcome of this test for `CC(C)(C)OOC(C)(C)CCC(C)(C)OOC(C)(C)C` .
Found: 0 (no)

Lookup: Tell me the recorded outcome of this test for `CCc1ccccc1N` .
Found: 0 (no)

Lookup: Tell me the recorded outcome of this test for `Cc1nc2ccccc2c(=O)n1-c1ccccc1Cl` .
Found: 0 (no)

Lookup: Tell me the recorded outcome of this test for CCCCC(CC)COC(=O)c1c(Br)c(Br)c(Br)c(Br)c1C(=O)OCC(CC)CCCC (stereo not given) .
Found: 0 (no)

Lookup: Tell me the recorded outcome of this test for CC(Cc1ccccc1)NCc1ccccc1Cl (stereo not given) .
Found: 0 (no)

Lookup: Tell me the recorded outcome of this test for `C=C(C)C(=O)OCCCCOC(=O)C(=C)C` .
Found: 0 (no)

Lookup: Tell me the recorded outcome of this test for `Cc1nc(N(C)C)nc(OC(=O)N(C)C)c1C` .
Found: 1 (yes)

Lookup: Tell me the recorded outcome of this test for `O=C(N/N=C/c1ccc([N+](=O)[O-])o1)c1cc([N+](=O)[O-])cc([N+](=O)[O-])c1O` .
Found: 0 (no)

Lookup: Tell me the recorded outcome of this test for `Oc1cccc(Cl)c1` .
Found: 0 (no)

Lookup: Tell me the recorded outcome of this test for `O=C(O)C(F)(F)C(F)(F)C(F)(F)C(F)(F)C(F)(F)C(F)(F)C(F)(F)C(F)(F)F` .
Found: 0 (no)

Lookup: Tell me the recorded outcome of this test for `O=C(NC(=O)c1cc(F)c(F)cc1Cl)Nc1cc(F)ccc1N1CCC(C(=O)O)CC1` .
Found: 0 (no)

Lookup: Tell me the recorded outcome of this test for `CC(C)(C)c1ccc(CCOc2ncnc3ccccc23)cc1` .
Found: 0 (no)
